- System: KDM5A/B
- experimentNotes: In vitro cell-based assay: immuno-blot quantification of tri-methyl H3K4 in ZR-75-1 breast cancer cells
- assaySetup: 72 hours, tri-methyl H3K4 level relative to GAPDH, percent of DMSO, read-out: Cellular IC50
pIC50: −log10 of the molar value.
measure: pIC50

Solved entries (count: 3):
- Oc1nc(Oc2cnn(Cc3ccccc3)c2)nc2cnccc12: 5.00 to 6.00
- N#CCC(=O)N1CCC[C@H](n2cc(Oc3nc(O)c4ccncc4n3)cn2)C1: < 5.00
- O=S(=O)(C1CC1)N1CCCC(n2cc(Oc3nc(O)c4ccncc4n3)cn2)C1 (stereo in doubt): 6.00 to 7.00

Proceeding to the next molecule to report its pIC50.
In: Given COc1ccc(Oc2nc(O)c3ccncc3n2)cc1F , state its recorded pIC50.
Out: 5.00 to 6.00
